Tested on: A498
Experimental details: NCI tumour cell line growth inhibition, 48 h
Active and inactive are the calls of the source. Rule as the data show it: active = GI50 up to about 1.1 µM and inactive = higher.
Measured endpoint: GI50

[
  {
    "Molecule": "O=c1c2c3c(sc2nc2n1NC=NN2)CCCC3",
    "Measured endpoint": "GI50",
    "Obs value": "> 53.6 µM (inactive)"
  },
  {
    "Molecule": "Cc1nc2ccc(NCCN(C)C)c3c(=O)c4cc(O)ccc4n1c23",
    "Measured endpoint": "GI50",
    "Obs value": "1.42 µM (inactive)"
  },
  {
    "Molecule": "COc1ccc2c(c1)OCCc1cn[nH]c1-2",
    "Measured endpoint": "GI50",
    "Obs value": "28.6 µM (inactive)"
  },
  {
    "Molecule": "COC(=O)[C@]12CC[C@H]3CN(S(=O)(=O)c4ccc(C)cc4)[C@H]([C@H]31)[C@H](c1ccco1)N2S(=O)(=O)c1ccc(C)cc1",
    "Measured endpoint": "GI50",
    "Obs value": "53.2 µM (inactive)"
  },
  {
    "Molecule": "CC1(C)[C@@H](Cn2cnc3c(Cl)nc(N)nc32)CC[C@@]1(C)CO",
    "Measured endpoint": "GI50",
    "Obs value": "> 100 µM (inactive)"
  },
  {
    "Molecule": "O=C(COc1ccc(Cl)cc1)N1CCN(C(=O)COc2ccc(Cl)cc2)c2ccccc21",
    "Measured endpoint": "GI50",
    "Obs value": "74.8 µM (inactive)"
  }
]

Field: GI50 (A498). Entry: "CCn1c(=O)c2c3ccc(O)cc3[nH]c2c2ccc(O)cc21"
> 100 µM (inactive)

Field: GI50 (A498). Entry: "CC1=CC[C@@]2(C)[C@@H]([C@@H]1C)[C@H]1CC[C@@H]3[C@@]4(C)CC[C@H](O)C(C)(C)[C@@H]4CC[C@@]3(C)[C@]1(C)C[C@@H]2O"
> 20.7 µM (inactive)

Field: GI50 (A498). Entry: "O=c1ccn([C@@H]2C[C@@H]2CO)c(=O)[nH]1"
> 100 µM (inactive)

Field: GI50 (A498). Entry: "C/C1=C\CC/C(C)=C/C=C(/C(C)C)CC/C(C(=O)O)=C/CC1"
21 µM (inactive)

Field: GI50 (A498). Entry: "COC(=O)C1=C(C(=O)OC)SC2(S1)C1=C(CCCC1)SC(C(=O)OC)=C2C(=O)OC"
6.21 µM (inactive)

---

Tested on: SNB-78
Experimental details: NCI tumour cell line growth inhibition, 48 h
Active and inactive are the calls of the source. No stated cut-off is given here; in the data, active = GI50 up to about 1.1 µM and inactive = higher.
Some molecules, each annotated with its measured GI50.

[
  {
    "Molecule": "COc1ccc2c(c1)OCCc1cn[nH]c1-2",
    "GI50": "29.1 µM (inactive)"
  },
  {
    "Molecule": "CCNC(=O)COc1ccc(Cl)cc1Cl",
    "GI50": "> 100 µM (inactive)"
  },
  {
    "Molecule": "Cc1c(C)c2cc3c(=O)c(CCl)coc3c(C)c2oc1=O",
    "GI50": "> 100 µM (inactive)"
  }
]

I am curious: what GI50 value has been reported for CC1OC(n2cc(C(F)(F)F)c(=O)[nH]c2=O)C=CC1=O (stereo not given) ?
15.8 µM (inactive)

Data provenance: ChEMBL document CHEMBL1201862
